Test system: Str. pyrogenes NCTC8304
Experiment: MIC, agar diffusion method, Str. pyrogenes NCTC8304
Type: cell-based
Readout: MIC value (concentration in μg/ml required for 90% inhibition) (µg/mL)
Answer format: numeric, µg/mL implied, no suffix.

Sample answers from the record:
Q) Given the compound CC(=O)OC1CC2(C)C(CC(O)C3C4(C)CCC(O)C(C)C4CCC32C)C12CC2(CCCC(C)C)C(=O)O (stereo not shown) , what is its reported MIC value (concentration in μg/ml required for 90% inhibition)?
A) 16

Q) Next entry: CC(C)=CCCC1(C(=O)O)CC12C(OC(=O)C(C)C)CC1(C)C2CC(O)C2C3(C)CCC(O)C(C)C3CCC21C (stereo not shown)
A) 64

Q) Next entry: CCOC1CC2(C)C(CC(O)C3C4(C)CCC(O)C(C)C4CCC32C)C12CC2(CCC=C(C)C)C(=O)O (stereo not shown)
A) 4

Continue with the next compound.
Q) Given the compound CC(=O)OC1CC2(C)C(CC(O)C3C4(C)CCC(=O)C(C)C4CCC32C)C12CC2(CCC=C(C)C)C(=O)O (stereo not drawn) [Compound 104, 3-Dehydro-17S,20S-methanofusidic acid] , what is its reported MIC value (concentration in μg/ml required for 90% inhibition)?
A) 16

###

Tested on: S. aureus ATCC 29213
Experiment: MIC, agar diffusion method, S. aureus ATCC 29213
Assay type: cell-based
Readout: MIC value (concentration in μg/ml required for 90% inhibition) (µg/mL)
Answer format: numeric, µg/mL implied, no suffix.

Q) Given the compound CCOC1CC2(C)C(CC(O)C3C4(C)CCC(O)C(C)C4CCC32C)C12CC2(CCC=C(C)C)C(=O)O (stereo not shown) , what is its reported MIC value (concentration in μg/ml required for 90% inhibition)?
A) 0.125

Others:
Q) Given the compound CC(C)=CCCC1(C(=O)O)CC12C(OC(=O)C(C)C)CC1(C)C2CC(O)C2C3(C)CCC(O)C(C)C3CCC21C (stereo not shown) , what is its reported MIC value (concentration in μg/ml required for 90% inhibition)?
A) 1.0

Q) Next entry: CC(=O)OC1CC2(C)C(CC(O)C3C4(C)CCC(O)C(C)C4CCC32C)C12CC2(CCCC(C)C)C(=O)O (stereo not shown)
A) 0.25

Q) Next entry: CC(=O)OC1CC2(C)C(CC(O)C3C4(C)CCC(=O)C(C)C4CCC32C)C12CC2(CCC=C(C)C)C(=O)O (stereo not drawn) [Compound 104, 3-Dehydro-17S,20S-methanofusidic acid]
A) 0.125

###

System: S. aureus ATC6538P
Experiment: MIC, agar diffusion method, S. aureus ATC6538P
Format: cell-based
Readout: MIC value (concentration in μg/ml required for 90% inhibition) (µg/mL)
Answer format: numeric, µg/mL implied, no suffix.

Q) Given the compound CCOC1CC2(C)C(CC(O)C3C4(C)CCC(O)C(C)C4CCC32C)C12CC2(CCC=C(C)C)C(=O)O (stereo not shown) , what is its reported MIC value (concentration in μg/ml required for 90% inhibition)?
A) 0.125

Q) Next entry: CC(=O)OC1CC2(C)C(CC(O)C3C4(C)CCC(=O)C(C)C4CCC32C)C12CC2(CCC=C(C)C)C(=O)O (stereo not drawn) [Compound 104, 3-Dehydro-17S,20S-methanofusidic acid]
A) 0.125

Q) Next entry: CC(=O)OC1CC2(C)C(CC(O)C3C4(C)CCC(O)C(C)C4CCC32C)C12CC2(CCCC(C)C)C(=O)O (stereo not shown)
A) 0.125

Others:
Q) Given the compound CC(C)=CCCC1(C(=O)O)CC12C(OC(=O)C(C)C)CC1(C)C2CC(O)C2C3(C)CCC(O)C(C)C3CCC21C (stereo not shown) , what is its reported MIC value (concentration in μg/ml required for 90% inhibition)?
A) 0.25
